I'd appreciate it if you could supply pKi values for the items below.
Molecular target: glucocorticoid receptors (Homo sapiens)
Assay: Glucocorticoid receptor binding displacement assay with 3H-dexamethasone
Set-up: This GR was a full-length steroid hormone receptor; host or cells: recombinant baculovirus-infected insect cells
Details: Ki from IC50 by Cheng-Prusoff; 2.5 nM 3H-dexamethasone; read-out: GR Binding
Protocol: The source of the receptor was recombinant baculovirus-infected insect cells. This GR was a full-length steroid hormone receptor likely to be associated with heat-shock and other endogenous proteins. […] After 2.5 hrs incubation, unbound counts were removed with dextran coated charcoal (DCC) as follows: 25 μl of DCC solution (10% DCC in assay buffer) was added to all wells and mixed (total volume 225 μl). […] The plate was vigorously shaken for approx. 10 minutes and counted on Topcount. […]
pKi: −log10 of the molar value.

Input: Identify the measured pKi of Cn1cnc(S(=O)(=O)N2CCC3=Cc4c(cnn4-c4ccc(F)cc4)CC3(Cc3ccc(F)cc3)C2)c1 (centres unmarked) for glucocorticoid receptors (Homo sapiens).
Output: > 8.00

Input: Identify the measured pKi of COCCOC[C@]12Cc3cnn(-c4ccc(F)cc4)c3C=C1CCN(S(=O)(=O)c1ccc(F)cc1)C2 for glucocorticoid receptors (Homo sapiens).
Output: > 8.00

Input: Identify the measured pKi of CCCCn1ncc2c1C=C1CCN(S(=O)(=O)c3ccc(C(C)(C)C)cc3)C[C@@]1(COCCOC)C2 for glucocorticoid receptors (Homo sapiens).
Output: > 8.00

Input: Identify the measured pKi of CC(C)(C)c1ccc(S(=O)(=O)N2CCC3=Cc4c(cnn4-c4ccc(F)cc4)C[C@]3(Cc3ccccc3)C2)cc1 for glucocorticoid receptors (Homo sapiens).
Output: > 8.00

Input: Identify the measured pKi of Fc1ccc(-n2ncc3c2C=C2CCN(Cc4c[nH]cn4)CC2(Cc2ccccc2)C3)cc1 (centres unmarked) for glucocorticoid receptors (Homo sapiens).
Output: < 7.00

Input: Identify the measured pKi of Cc1ccc(S(=O)(=O)N2CCC3=Cc4c(cnn4-c4ccc(F)cc4)C[C@]3(CN(C)C)C2)cc1 for glucocorticoid receptors (Homo sapiens).
Output: > 8.00

Input: Identify the measured pKi of CCOC[C@]12Cc3cnn(-c4ccc(F)cc4)c3C=C1CCN(S(=O)(=O)c1ccc(C(C)(C)C)cc1)C2 for glucocorticoid receptors (Homo sapiens).
Output: > 8.00

Input: Identify the measured pKi of CC(C)(C)c1ccc(S(=O)(=O)N2CCC3=Cc4c(cnn4-c4ccc(S(N)(=O)=O)cc4)CC3(Cc3ccccc3)C2)cc1 (centres unmarked) [drawing 256] for glucocorticoid receptors (Homo sapiens).
Output: 7.00 to 8.00

Input: Identify the measured pKi of COCCCOC[C@]12Cc3cnn(-c4ccc(F)cc4)c3C=C1CCN(S(=O)(=O)c1ccc(C(C)(C)C)cc1)C2 for glucocorticoid receptors (Homo sapiens).
Output: > 8.00

Input: Identify the measured pKi of COC[C@]12Cc3cnn(-c4ccc(F)cc4)c3C=C1CCN(S(=O)(=O)c1ccc(F)cc1)C2 for glucocorticoid receptors (Homo sapiens).
Output: > 8.00

Input: Identify the measured pKi of O=S(=O)(c1ccc(N2CCOCC2)cc1)N1CCC2=Cc3[nH]ncc3CC2(Cc2ccccc2)C1 (centres unmarked) [drawing 246] for glucocorticoid receptors (Homo sapiens).
Output: > 8.00

Input: Identify the measured pKi of COCCOC[C@]12Cc3cnn(-c4ccc(F)cc4)c3C[C@@H]1CCN(S(=O)(=O)c1ccccc1)C2 for glucocorticoid receptors (Homo sapiens).
Output: > 8.00

Input: Identify the measured pKi of O=S(=O)(c1ccccc1)N1CCC2=Cc3c(cnn3-c3ccc(F)cc3)C[C@]2(COCCO)C1 for glucocorticoid receptors (Homo sapiens).
Output: > 8.00

Input: Identify the measured pKi of CC(C)(C)c1ccc(S(=O)(=O)N2CCC3=Cc4[nH]ncc4CC3(Cc3ccccc3)C2)cc1 (centres unmarked) [drawing 245] for glucocorticoid receptors (Homo sapiens).
Output: > 8.00

Input: Identify the measured pKi of COCCOC[C@]12Cc3cnn(-c4ccc(F)cc4)c3C=C1CCN(S(=O)(=O)N(C)C)C2 for glucocorticoid receptors (Homo sapiens).
Output: < 7.00

Input: Identify the measured pKi of COC(=O)C[C@]12Cc3cnn(-c4ccc(F)cc4)c3C=C1CCN(S(=O)(=O)c1ccc(C(C)(C)C)cc1)C2 for glucocorticoid receptors (Homo sapiens).
Output: > 8.00

Input: Identify the measured pKi of COCCOC[C@]12Cc3cnn(C)c3C=C1CCN(S(=O)(=O)c1ccc(C(C)(C)C)cc1)C2 for glucocorticoid receptors (Homo sapiens).
Output: 7.00 to 8.00

* * *

I'd appreciate it if you could supply pKi values for the items below.
Biological target: glucocorticoid receptors (Homo sapiens, UniProt P04150)
Sequence (P04150 1-777): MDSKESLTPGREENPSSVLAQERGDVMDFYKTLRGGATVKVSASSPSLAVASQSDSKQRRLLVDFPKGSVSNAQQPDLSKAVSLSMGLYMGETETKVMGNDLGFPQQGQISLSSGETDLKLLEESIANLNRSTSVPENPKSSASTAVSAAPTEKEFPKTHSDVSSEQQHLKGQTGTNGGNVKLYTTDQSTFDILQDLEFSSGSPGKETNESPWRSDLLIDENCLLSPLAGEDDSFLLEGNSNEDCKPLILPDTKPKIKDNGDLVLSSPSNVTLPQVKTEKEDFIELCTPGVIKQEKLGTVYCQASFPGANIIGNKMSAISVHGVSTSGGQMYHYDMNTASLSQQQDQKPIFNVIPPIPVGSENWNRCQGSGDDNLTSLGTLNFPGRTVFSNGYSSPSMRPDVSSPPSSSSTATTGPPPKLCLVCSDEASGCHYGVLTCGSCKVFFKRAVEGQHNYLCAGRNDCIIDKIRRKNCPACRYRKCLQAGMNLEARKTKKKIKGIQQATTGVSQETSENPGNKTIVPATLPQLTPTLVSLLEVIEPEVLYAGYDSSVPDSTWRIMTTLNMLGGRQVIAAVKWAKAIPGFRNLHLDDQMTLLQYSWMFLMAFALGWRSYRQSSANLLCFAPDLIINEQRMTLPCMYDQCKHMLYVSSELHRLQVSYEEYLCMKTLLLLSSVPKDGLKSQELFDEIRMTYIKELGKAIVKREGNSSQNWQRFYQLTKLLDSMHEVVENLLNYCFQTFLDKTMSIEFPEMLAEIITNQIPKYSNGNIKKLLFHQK
Assay: Glucocorticoid receptor binding displacement assay with 3H-dexamethasone
Parameters: This GR was a full-length steroid hormone receptor; host or cells: recombinant baculovirus-infected insect cells
Conditions: Ki from IC50 by Cheng-Prusoff; 2.5 nM 3H-dexamethasone; read-out: GR Binding
pKi: −log10 of the molar value.

Input: Item COCCOC[C@]12Cc3cnn(-c4ccc(F)cc4)c3C=C1CCN(S(=O)(=O)c1ccc(C(C)(C)C)cc1)C2 has what recorded pKi?
Output: > 8.00

Input: Item O=S(=O)(c1ccccc1)N1CCC2=Cc3c(cnn3-c3ccc(F)cc3)C[C@]2(CO)C1 has what recorded pKi?
Output: 7.00 to 8.00

Input: Item O=S(=O)(c1ccc(F)cc1)N1CCC2=Cc3c(cnn3-c3ccc(F)cc3)C[C@]2(CN2CCCC2)C1 has what recorded pKi?
Output: > 8.00

Input: Item CN(C)C[C@]12Cc3cnn(-c4ccc(F)cc4)c3C=C1CCN(S(=O)(=O)c1ccc(F)cc1)C2 has what recorded pKi?
Output: > 8.00

Input: Item CN(C)C(=O)[C@]12Cc3cnn(-c4ccc(F)cc4)c3C=C1CCN(S(=O)(=O)c1ccc(C(C)(C)C)cc1)C2 has what recorded pKi?
Output: 7.00 to 8.00

Input: Item COC[C@]12Cc3cnn(C(C)C)c3C=C1CCN(S(=O)(=O)c1ccc(C(C)(C)C)cc1)C2 has what recorded pKi?
Output: 7.00 to 8.00

Input: Item CC(C)(C)c1ccc(S(=O)(=O)N2CCC3=Cc4c(cnn4-c4ccc(F)cc4)C[C@]3(C(=O)N3CCOCC3)C2)cc1 has what recorded pKi?
Output: 7.00 to 8.00

Input: Item CC(C)(C)c1ccc(S(=O)(=O)N2CCC3=Cc4c(cnn4-c4ccc(C#N)cc4)CC3(Cc3ccccc3)C2)cc1 (centres unmarked) [drawing 255] has what recorded pKi?
Output: > 8.00

Input: Item CCCCn1ncc2c1C=C1CCN(S(=O)(=O)c3ccc(C(C)(C)C)cc3)C[C@@]1(CN1CCCCC1)C2 has what recorded pKi?
Output: > 8.00

Input: Item CC(C)S(=O)(=O)N1CCC2=Cc3c(cnn3-c3ccc(F)cc3)CC2(Cc2ccccc2)C1 (centres unmarked) has what recorded pKi?
Output: < 7.00

Input: Item CCCCn1ncc2c1C=C1CCN(S(=O)(=O)c3ccc(C(C)(C)C)cc3)C[C@@]1(C(=O)OC)C2 has what recorded pKi?
Output: 7.00 to 8.00

Input: Item CCCN1CCC2=Cc3c(cnn3-c3ccc(F)cc3)CC2(Cc2ccc(F)cc2)C1 (centres unmarked) has what recorded pKi?
Output: 7.00 to 8.00

Input: Item CC(C)(C)c1ccc(S(=O)(=O)N2CCC3=Cc4c(cnn4-c4ccncc4)C[C@]3(C)C2)cc1 has what recorded pKi?
Output: > 8.00

Input: Item O=S(=O)(c1ccc(F)cc1)N1CCC2=Cc3c(cnn3-c3ccc(F)cc3)C[C@]2(CO)C1 has what recorded pKi?
Output: > 8.00

Input: Item CC(C)(C)c1ccc(S(=O)(=O)N2CCC3=Cc4c(cnn4-c4ccc(F)cc4)C[C@]3(CNCCO)C2)cc1 has what recorded pKi?
Output: > 8.00

Input: Item COC(=O)[C@]12Cc3cnn(-c4ccc(F)cc4)c3C=C1CCN(S(=O)(=O)c1ccc(C(C)(C)C)cc1)C2 has what recorded pKi?
Output: > 8.00

Input: Item CCCCn1ncc2c1C=C1CCN(S(=O)(=O)c3ccc(C)cc3)C[C@@]1(C(=O)OC)C2 has what recorded pKi?
Output: < 7.00

These entries and their values trace back to patent US8557839B2.
